Just for reference, PubChem BioAssay AID1159580 is where these values come from.

Experiment: chemical genetic growth profiling, strain panel (AID 1159580);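 further: tested at 20 µM; growth read once vehicle control cultures reached saturation at 30 °C; 1 = growth at the plate median or of vehicle wells; lower values mean less growth of the strain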
Conditions: S. cerevisiae deletion strains, growth OD, locus YLL041C, strain sdh2, active compounds read low
The campaign covered roughly 5,500 compounds. About 2,000 (36%) were called active. Another 18% or so got no clear call; they are omitted. The list shows a part of the results.
Give measured normalized growth for each item. Keep answers brief.
API doc: respond with a numeric literal and nothing else, no unit.

Task item: What does the data say about its normalized growth? Entry: OCc1ccccc1O
Reply: 1.01

Task item: Repeat for the following compound: CCOC(=O)c1ccc(O)cc1
Reply: 1.01

Task item: Repeat for the following compound: CC1(C)O[C@H]2[C@H](O)C[C@](O)(C(N)=O)C[C@H]2O1
Reply: 1.02

Task item: Repeat for the following compound: O=C(Cn1ccnc1[N+](=O)[O-])NCCO
Reply: 1.01

Task item: Repeat for the following compound: Oc1ccc(Cl)cc1
Reply: 1.01

Task item: Repeat for the following compound: Oc1ccc(Cl)cc1Cc1cc(Cl)ccc1O
Reply: 0.0645

Task item: Repeat for the following compound: CN1C(C(=O)Nc2ccccn2)=C(O)c2ccccc2S1(=O)=O
Reply: 0.953

Task item: Repeat for the following compound: C[C@H]1CC[C@@H](C(C)(C)O)CC2=C1CC[C@@H]2C
Reply: 0.993

Task item: Repeat for the following compound: CC(C)(C)CC(C)(C)c1ccc(O)c(Cc2ccc(Cl)cc2Cl)c1
Reply: 1.02

Task item: Repeat for the following compound: COC(=O)C(O)c1ccccc1 (stereo not drawn)
Reply: 1.02

Task item: Repeat for the following compound: CC(C(=O)O)c1ccc(C(=O)c2cccs2)cc1 (stereo not drawn)
Reply: 0.996

Task item: Repeat for the following compound: CO[C@@]1(NC(=O)CSCC#N)C(=O)N2C(C(=O)O)=C(CSc3nnnn3C)CSC21 (stereo partly drawn)
Reply: 0.978

Task item: Repeat for the following compound: COc1c(OC)c2occc2c2oc(=O)ccc12
Reply: 0.975

----------
Assay: chemical genetic growth profiling, strain panel (AID 1159580);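 further: tested at 20 µM; growth read once vehicle control cultures reached saturation at 30 °C; 1 = growth at the plate median or of vehicle wells; lower values mean less growth of the strain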
Details: S. cerevisiae deletion strains, growth OD, locus YJL187C, strain SWE1 (second series), active compounds read low
About 2,000 (36%) of roughly 5,500 compounds were called active. Inconclusive results (about 18%) are left out. The list shows a part of the results.
VALUE KIND: normalized growth
API doc: respond with a numeric literal and nothing else, no unit.

Task item: What does the data say about its normalized growth? Entry: CC1(C)NC(=O)N(c2ccc([N+](=O)[O-])c(C(F)(F)F)c2)C1=O
Reply: 1.01

Task item: Repeat for the following compound: CC(C)C(=O)Nc1ccc([N+](=O)[O-])c(C(F)(F)F)c1
Reply: 0.988

Task item: Repeat for the following compound: CC(C)NCC(O)c1cc(O)cc(O)c1 (stereo not drawn)
Reply: 0.995

Task item: Repeat for the following compound: O=C1NC(=O)C(=O)C(=O)N1
Reply: 1.01

Task item: Repeat for the following compound: Nc1ccc(N=Nc2ccccc2)c(N)n1
Reply: 0.961

Task item: Repeat for the following compound: CC(C)[C@@H]1CC[C@@H](C)C[C@H]1O
Reply: 0.984

Task item: Repeat for the following compound: C=C1C(C)C2C(Cc3ccccc3)NC(=O)C23OC(=O)/C=C/C(=O)CCCC(C)C/C=C/C3C1O (stereo not drawn)
Reply: 1.01

Task item: Repeat for the following compound: Cc1cc(-c2ccccc2)nnc1NCCN1CCOCC1
Reply: 0.997

Task item: Repeat for the following compound: CC(C)NNC(=O)c1ccncc1
Reply: 1.01

Task item: Repeat for the following compound: CC[C@H](C)C(=O)O[C@H]1CCC=C2C=C[C@H](C)C(CCC3C[C@@H](O)CC(=O)O3)[C@H]21 (stereo partly drawn)
Reply: 0.994

Task item: Repeat for the following compound: NC(CO)C(=O)NNCc1ccc(O)c(O)c1O (stereo not drawn)
Reply: 0.988

Task item: Repeat for the following compound: CC[C@H](C)C(=O)O[C@H]1C[C@@H](C)C=C2C=C[C@H](C)[C@H](CC[C@@H]3C[C@@H](O)CC(=O)O3)[C@H]21
Reply: 0.989

Task item: Repeat for the following compound: Cc1ccc(C)c(OCCCC(C)(C)C(=O)O)c1
Reply: 0.942
